B1: Twister Ribozyme (parent)
chain: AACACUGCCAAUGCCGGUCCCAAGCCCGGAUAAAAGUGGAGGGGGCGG

Variants of: B1
Assay: self-cleavage, relative activity (ratio to wild type); higher = more cleavage; co-transcriptional
Listed here: items and their measured self-cleavage.

MUTANT CODE	self-cleavage
U31G U37G	0.734

Task: // lookup self-cleavage for A10C G41A
Result: 0.494
